This collection of values is drawn from paper PMC4947679.

Experiment: Blood-to-brain transport, multiple time regression (MTR) analysis in mice
Settings: female, ICR-CD-1, mouse, serum, iv, 36 μg/mouse
value kind: half-life (min)
# unit: min | format: bare number

Given the entry CCCCC/C=C/C=C/C(=O)NCC(C)C [pellitorine, deca-2E,4E-dienoic acid isobutylamide] , report its measured half-life.
4.48

====

Test: Caco-2 cell permeability assay
Type: in vitro ADME, human
Conditions: human, Caco-2; DS1: 1 μg/mL pellitorine (in Anacyclus pyrethrum extract) in 0.5% EtOH in HBSS; nonsink equation; mean ± SD, n = 2; read-out: apparent permeability coefficient (P app), apical-to-basolateral transport
value kind: Papp A→B at 120 min, 1 μg/mL (×10⁻⁶ cm/s)
# unit: ×10⁻⁶ cm/s | format: bare number

Given the entry CCCCC/C=C/C=C/C(=O)NCC(C)C [pellitorine, deca-2E,4E-dienoic acid isobutylamide] , report its measured Papp A→B at 120 min, 1 μg/mL.
48.1

====

Assay: In vitro metabolic stability
Assay type: in vitro ADME
Details: pH 7.4; one hour, 37°C; mouse serum, brain homogenate and liver homogenate
Description: The in vitro metabolic stability of pellitorine was evaluated in mouse brain and liver homogenates and mouse serum according to previously described protocols. Using the Pierce Modified Lowry Protein Assay method (Thermo Scientific), the protein content of each tissue homogenate was determined to prepare a stock solution containing a 0.6 mg/mL protein concentration in Krebs-Henseleit buffer (pH 7.4). […]
value kind: recovery at 1 h, 0.025 mg/mL

Given the entry CCCCC/C=C/C=C/C(=O)NCC(C)C [pellitorine, deca-2E,4E-dienoic acid isobutylamide] , report its measured recovery at 1 h, 0.025 mg/mL.
91 to 105%

====

Test: Capillary depletion experiment in mice
Format: in vivo, ICR-CD-1 mice
Conditions: female, ICR-CD-1, mouse, brain parenchyma (relative to serum), 36 μg/mouse, 10 min after intravenous injection, read-out: brain parenchyma, brain/serum ratio
value kind: Kp at 10 min
I only need the number, thanks.

Given the entry CCCCC/C=C/C=C/C(=O)NCC(C)C [pellitorine, deca-2E,4E-dienoic acid isobutylamide] , report its measured Kp at 10 min.
0.347

====

Experiment: Blood-to-brain transport, multiple time regression (MTR) analysis in mice
Details: female, ICR-CD-1, mouse, brain (relative to serum), iv, 36 μg/mouse
value kind: Kp

Given the entry CCCCC/C=C/C=C/C(=O)NCC(C)C [pellitorine, deca-2E,4E-dienoic acid isobutylamide] , report its measured Kp.
0.792

====

Experiment: Brain-to-blood transport after intracerebroventricular injection in mice
Type: in vivo, ICR-CD-1 mice
Conditions: female, ICR-CD-1, mouse, icv or intrathecal, 1.8 μg/mouse, read-out: efflux brain half-life t 1/2,brain
value kind: half-life (min)
# unit: min | format: bare number

Given the entry CCCCC/C=C/C=C/C(=O)NCC(C)C [pellitorine, deca-2E,4E-dienoic acid isobutylamide] , report its measured half-life.
13.8

====

Assay: Oral gavage pharmacokinetic experiment with rats
Assay type: in vivo, Wistar rats
Settings: both sexes, Wistar, rat, serum, po, 5 mg pellitorine/kg, oral gavage, 5 mg pellitorine/kg (Anacyclus pyrethrum extract dose solution), one-compartment model, read-out: serum elimination rate constant k e (converted)
value kind: k el (s⁻¹)
# unit: s⁻¹ | format: bare number

Given the entry CCCCC/C=C/C=C/C(=O)NCC(C)C [pellitorine, deca-2E,4E-dienoic acid isobutylamide] , report its measured k el.
8.33e-05

====

Experiment: Blood-to-brain transport, multiple time regression (MTR) analysis in mice
Conditions: female, ICR-CD-1, mouse, serum, iv, 36 μg/mouse
value kind: k el (s⁻¹)
# unit: s⁻¹ | format: bare number

Given the entry CCCCC/C=C/C=C/C(=O)NCC(C)C [pellitorine, deca-2E,4E-dienoic acid isobutylamide] , report its measured k el.
0.0025

====

Assay: Oral gavage pharmacokinetic experiment with rats
Format: in vivo, Wistar rats
Conditions: both sexes, Wistar, serum; rat, oral gavage, 5 mg pellitorine/kg, one-compartment model; read-out: elimination half-life t 1/2,e (converted)
Experimental: Male and female Wistar rats weighing approximately 220 g were obtained from Bharat Serum and Vaccines Pvt. […] A pellitorine dose solution was prepared using the Anacyclus pyrethrum extract. […] Using GraphPad software (La Jolla, USA), the elimination rate constant k e (h^−1) is calculated using the following equation of a one-compartment model: C(t) = C 0 × e ^−ke×t, in which C(t) (ng/mL) is the concentration of pellitorine at time t (h) and C 0 the concentration of pellitorine at time t = 0 (ng/mL). […]
value kind: half-life (h)
# unit: h | format: bare number

Given the entry CCCCC/C=C/C=C/C(=O)NCC(C)C [pellitorine, deca-2E,4E-dienoic acid isobutylamide] , report its measured half-life.
2.46
